Test system: KKA^y mice
Assay Procedure: Hypoglycemic and hypolipidemic actions in mice
Type: in vivo
Experimental Parameters: Mus musculus, po, 96 h, 0.005% in powdery diet, four days, percent reduction of plasma triglyceride compared with the non-treatment group, read-out: Hypolipidemic action (%)
Threshold rule: inhibition in vivo at 0.005 % greater than or equal to 60% is 1; below that, -1.

Has CCOc1nn(Cc2ccc(OCc3nc(-c4ccccc4)oc3C)nc2)cc1CCC(=O)O a recorded inhibition in vivo at 0.005 % greater than or equal to 60%? 1

Has CCOc1nn(Cc2ccc(OCc3nc(-c4ccccc4)sc3C)cc2)cc1CCC(=O)O a recorded inhibition in vivo at 0.005 % greater than or equal to 60%? -1

Has CCOc1nn(Cc2ccc(OCc3cn(-c4ccccn4)nc3C)cc2)cc1CCC(=O)O a recorded inhibition in vivo at 0.005 % greater than or equal to 60%? -1

Has CCOc1nn(Cc2ccc(OCc3csc(-c4ccccc4)n3)cc2)cc1CCC(=O)O a recorded inhibition in vivo at 0.005 % greater than or equal to 60%? 1

Has Cc1oc(-c2ccco2)nc1COc1ccc(Cn2cc(CCC(=O)O)c(-c3ccccc3)n2)cc1 a recorded inhibition in vivo at 0.005 % greater than or equal to 60%? -1

Has Cc1oc(-c2cccs2)nc1COc1ccc(Cn2cc(CCC(=O)O)c(-c3ccccc3)n2)cc1 a recorded inhibition in vivo at 0.005 % greater than or equal to 60%? -1

Has Cc1oc(-c2ccccc2)nc1COc1ccc(Cn2cc(CCC(=O)O)c(-c3ccccc3)n2)cn1 a recorded inhibition in vivo at 0.005 % greater than or equal to 60%? 1

###

Please respond with reported melting point for every item in the list.

If you can, please state the reported melting point value of Cc1oc(-c2ccccc2)nc1COc1ccc2cc(Cn3cc(CCC(=O)O)c(-c4ccccc4)c3)ccc2c1 . 122 to 123 °C

If you can, please state the reported melting point value of O=C(O)CCc1cn(Cc2ccc(OCc3csc(-c4ccncc4)n3)cc2)cc1-c1ccccc1 . 149 to 150 °C

If you can, please state the reported melting point value of O=C(O)CCc1cn(Cc2ccc(OCc3coc(-c4ccccc4)n3)cc2)cc1-c1ccccc1 . 139 to 140 °C

If you can, please state the reported melting point value of O=C(O)CCc1cn(Cc2ccc(OCc3cccc(-c4cnccn4)c3)cc2)cc1-c1ccccc1 . 91 to 92 °C

If you can, please state the reported melting point value of CCOC(=O)c1cn(Cc2ccc(Oc3ccccc3)cc2)nc1OCc1nc(-c2ccccc2)oc1C . 96 to 97 °C

If you can, please state the reported melting point value of Cc1sc(-c2ccccc2)nc1COc1ccc(Cn2cc(CCC(=O)O)c(-c3ccccc3)c2)cc1 . 157 to 158 °C

If you can, please state the reported melting point value of CCOC(=O)/C=C/c1cn(Cc2ccc(Oc3ccccc3)cc2)nc1OCc1nc(-c2ccccc2)oc1C . 93 to 94 °C

If you can, please state the reported melting point value of CCOC(=O)CCc1cn(Cc2ccc(OCc3cn4c(-c5ccccc5)cccc4n3)cc2)nc1OCC . 104 to 105 °C

If you can, please state the reported melting point value of O=C(O)CCc1cn(Cc2ccc(OCc3cccs3)cc2)cc1-c1ccccc1 . 127 to 128 °C

If you can, please state the reported melting point value of Cc1oc(-c2cccs2)nc1COc1ccc(Cn2cc(CCC(=O)O)c(-c3ccccc3)n2)cc1 . 159 to 160 °C

If you can, please state the reported melting point value of CCOc1nn(Cc2ccnc(OCc3nc(-c4ccco4)oc3C)c2)cc1CCC(=O)O . 138 to 139 °C

If you can, please state the reported melting point value of CCOc1nn(Cc2ccc(OCc3csc(-c4ccccc4)n3)nc2)cc1CCC(=O)O . 121 to 122 °C

If you can, please state the reported melting point value of O=C(O)CCc1cn(Cc2ccc(OCc3csc(-c4cccnc4)n3)cc2)cc1-c1ccccc1 . 118 to 119 °C

If you can, please state the reported melting point value of Cc1oc(-c2ccccc2)nc1COc1ccc(Cn2cc(CCC(=O)O)c(-c3ccc(F)cc3)n2)cc1 . 139 to 140 °C

If you can, please state the reported melting point value of CCOc1nn(Cc2ccnc(OCc3cn4c(-c5ccccc5)cccc4n3)c2)cc1CCC(=O)O . 177 to 178 °C

If you can, please state the reported melting point value of CCOc1cc(Cn2cc(CCC(=O)O)c(-c3ccccc3)c2)cc(OCc2nc(-c3ccccc3)oc2C)c1 . 126 to 127 °C

If you can, please state the reported melting point value of CCOC(=O)c1cn(Cc2ccc(OCc3ccccc3)cc2)nc1-c1ccc(F)cc1 . 103 to 104 °C

If you can, please state the reported melting point value of CCOc1nn(Cc2ccc(OCn3nnc4ccccc43)cc2)cc1CCC(=O)O . 136 to 137 °C

If you can, please state the reported melting point value of CCOc1nn(Cc2ccc(OCc3ccc4ccccc4n3)nc2)cc1CCC(=O)O . 133 to 134 °C

If you can, please state the reported melting point value of O=C(O)CCc1cn(Cc2ccc(OCc3ccc4ccccc4n3)nc2)nc1-c1ccccc1 . 166 to 167 °C

If you can, please state the reported melting point value of O=C(O)CCc1cn(Cc2ccc(OCc3csc(-c4ccccc4)n3)nc2)nc1-c1ccccc1 . 107 to 108 °C

If you can, please state the reported melting point value of CCCc1nn(Cc2ccc(OCc3nc(-c4ccccc4)oc3C)cc2)cc1CCC(=O)O . 153 to 154 °C

If you can, please state the reported melting point value of Cc1oc(-c2ccco2)nc1COc1ccc(Cn2cc(CCC(=O)O)c(-c3ccccc3)n2)cc1 . 152 to 153 °C

If you can, please state the reported melting point value of O=C(O)CCc1cn(Cc2ccc(OCc3cccnc3)cc2)nc1-c1ccccc1 . 112 to 113 °C

If you can, please state the reported melting point value of Cc1oc(-c2ccccc2)nc1COc1ccc(Cn2cc(CCC(=O)O)c(C(C)C)n2)cc1 . 97 to 98 °C

If you can, please state the reported melting point value of CCOc1nn(Cc2cc(OCc3ccc4ccccc4n3)no2)cc1CCC(=O)O . 123 to 124 °C

If you can, please state the reported melting point value of CCOc1nn(Cc2ccc(OCc3cn(-c4ccccn4)nc3C)cc2)cc1CCC(=O)O . 126 to 127 °C

If you can, please state the reported melting point value of O=C(O)CCc1cn(Cc2ccc(OCc3cccnc3)cc2)cc1-c1ccccc1 . 131 to 132 °C

If you can, please state the reported melting point value of CCOc1nn(Cc2ccc(OCc3cncc(-c4ccccc4)c3)cc2)cc1CCC(=O)O . 92 to 93 °C

If you can, please state the reported melting point value of CCOc1nn(Cc2ccc(OCc3cn4c(OCC)cccc4n3)cc2)cc1CCC(=O)O . 197 to 198 °C

If you can, please state the reported melting point value of O=C(O)CCc1cn(Cc2ccc(OCc3ccncc3)cc2)cc1-c1ccccc1 . 124 to 125 °C

If you can, please state the reported melting point value of CCOC(=O)CCc1cn(Cc2ccc(OC)c(OCc3nc(-c4ccccc4)oc3C)c2)nc1OCC . 109 to 110 °C

If you can, please state the reported melting point value of CCOc1nn(Cc2ccc(OCc3ccc(-c4ccccc4)nc3)cc2)cc1CCC(=O)O . 140 to 141 °C

###

System: KKA^y mice
Assay Procedure: Hypoglycemic and hypolipidemic actions in mice
Format: in vivo
Experimental Parameters: Mus musculus, po, 96 h, 0.01% in powdery diet, four days, percent reduction of plasma triglyceride compared with the non-treatment group, read-out: Hypolipidemic action (%)
Please respond with reported inhibition in vivo at 0.01 % for every item in the list.
Field format: number, assumed %, no unit text.

If you can, please state the reported inhibition in vivo at 0.01 % value of Cc1oc(-c2ccccc2)nc1COc1ccc(Cn2cc(CCC(=O)O)c(-c3ccccc3)n2)cc1 . 70

If you can, please state the reported inhibition in vivo at 0.01 % value of O=C(O)CCc1cn(Cc2ccc(OCc3cccnc3)cc2)cc1-c1ccccc1 . 63

If you can, please state the reported inhibition in vivo at 0.01 % value of CCOc1nn(Cc2ccc(OCc3coc(-c4ccccc4)n3)cc2)cc1CCC(=O)O . 78

If you can, please state the reported inhibition in vivo at 0.01 % value of O=C(O)CCc1cn(Cc2ccc(OCc3csc(-c4ccccc4)n3)cc2)cc1-c1ccccc1 . 77

###

Assay Readout: melting point

If you can, please state the reported melting point value of O=C(O)CCc1cn(Cc2ccc(OCc3ccc(-c4ccccc4)cn3)cc2)cc1-c1ccccc1 . 169 to 170 °C

If you can, please state the reported melting point value of Cc1oc(-c2ccccc2)nc1COc1ccc(Cn2cc(CCC(=O)O)c(OCc3ccccc3)n2)cc1 . 108 to 109 °C

If you can, please state the reported melting point value of CN(CCOc1ccc(Cn2cc(CCC(=O)O)c(-c3ccccc3)c2)cc1)c1ccccn1 . 110 to 111 °C

If you can, please state the reported melting point value of CCOC(=O)/C=C/c1cn(Cc2ccc(OCc3ccccc3)cc2)nc1-c1ccc(F)cc1 . 113 to 114 °C

If you can, please state the reported melting point value of O=C(O)CCc1cn(Cc2ccc(OCc3csc(-c4ccccn4)n3)cc2)cc1-c1ccccc1 . 117 to 118 °C
